read-out: Interleukin 2 (IL2), IL2 (gene 3558); assay: BSK_BT_xIL2: BioMAP Diversity Plus: BT Assay for Interleukin 2 (IL2) Biomarker Activity (AID 2284245); settings: primary human B cells with PBMC
Active and inactive are the calls of the source. Rule for the calls: active = hit-call score of the fitted dose curve at least 0.9, where 1 is the maximum; inactive = score below 0.9.
METRIC_NAME: AC50

Nc1ccc(-c2ccc(N)c(N)c2)cc1N: inactive
COCC(=O)N(c1c(C)cccc1C)N1CCOC1=O: inactive
O=c1c2ccccc2c(=O)c2c1cc(Cl)c1[nH]c3c([nH]c12)c(Cl)cc1c(=O)c2ccccc2c(=O)c13: inactive
CC(=O)/C=C/c1ccccc1: 20 µM (active)
CC(C)CCCCCCCOC(=O)c1ccccc1C(=O)OCCCCCCCC(C)C: inactive
Clc1ccc(-c2ccccc2)cc1: inactive
CCCCCCCCCCCC#N: inactive
Cc1ccc(OP(=O)(Oc2ccc(C)cc2)Oc2ccc(C)cc2)cc1 (tested in a mixture with another compound): 20 µM (active)

Task item: Which value of AC50 has been reported for C=CCN(CC=C)C(=O)C(Cl)Cl in the records?
Reply: inactive

Task item: Which value of AC50 has been reported for CCc1cc(C)cc(CC)c1-c1c(OC(=O)C(C)(C)C)n2n(c1=O)CCOCC2 in the records?
Reply: inactive

----------
read-out: Macrophage colony-stimulating factor (MCSF), CSF1 (gene 1435); assay: BSK_hDFCGF_MCSF: BioMAP Diversity Plus: hDFCGF Assay for Macrophage colony-stimulating factor (MCSF) Biomarker Activity (AID 2283060); details: primary human foreskin fibroblasts; actives raise or lower the signal
Activity calls are given as the source filed them. How the source made its calls: active means hit-call score of the fitted dose curve at least 0.9, where 1 is the maximum; inactive means score below 0.9.
Pick one: active, inactive

Task item: How did this test come out for COC(C)(C)CCC[C@H](C)C/C=C/C(C)=C/C(=O)OC(C)C ?
Reply: active

Task item: How did this test come out for O=C(CCl)c1ccccc1 ?
Reply: active

Task item: How did this test come out for O=S(=O)(c1ccccc1)c1ccccc1 ?
Reply: inactive

----------
read-out: Interferon-gamma inducible Protein 10 (IP10), CXCL10 (gene 3627); experiment: BSK_KF3CT_IP10: BioMAP Diversity Plus: KF3CT Assay for Interferon-gamma inducible Protein 10 (IP10) Biomarker Activity (AID 2283068); settings: primary human keratinocytes with fibroblasts; actives raise or lower the signal
Calls of active or inactive are those of the source. How the source made its calls: active means hit-call score of the fitted dose curve at least 0.9, where 1 is the maximum; inactive means score below 0.9.
Pick one: label 1 (active), label 0 (inactive)

Task item: How did this test come out for Nc1ccc(-c2ccc(N)c(N)c2)cc1N ?
Reply: label 0

Task item: How did this test come out for N#CCCCCC#N ?
Reply: label 0

Task item: How did this test come out for CCCC[N+](CCCC)(CCCC)CCCC ?
Reply: label 0

Task item: How did this test come out for CC(C)CCCCCCCOP(=O)(Oc1ccccc1)Oc1ccccc1 ?
Reply: label 1

Task item: How did this test come out for COCC(=O)N(c1c(C)cccc1C)N1CCOC1=O ?
Reply: label 0

Task item: How did this test come out for O=[N+]([O-])O ?
Reply: label 0

Task item: How did this test come out for CC(C)COP(=O)(OCC(C)C)OCC(C)C ?
Reply: label 0

Task item: How did this test come out for O=C(CCl)c1ccccc1 ?
Reply: label 1

Task item: How did this test come out for Oc1cc(Cl)ccc1Cl ?
Reply: label 0

Task item: How did this test come out for CCCOC(=O)c1ccccc1C(=O)OCCC ?
Reply: label 0

Task item: How did this test come out for O=C1C(Cl)=C(Cl)C(=O)C(Cl)=C1Cl ?
Reply: label 1

Task item: How did this test come out for CCC(C)c1cc([N+](=O)[O-])cc([N+](=O)[O-])c1OC(=O)C=C(C)C (centres undefined) ?
Reply: label 1

Task item: How did this test come out for CCCCCCCCCCCC#N ?
Reply: label 0

Task item: How did this test come out for O=S(=O)(c1ccccc1)c1ccccc1 ?
Reply: label 0

----------
target: human Retinoid X Receptor beta (RXRb), RXRB (gene 6257) (UniProt P28702); experiment: ATG_RXRb_TRANS: Attagene TRANS-FACTORIAL HepG2 Assay for human Retinoid X Receptor beta (RXRb) (AID 2283013)
Sequence (P28702 whole entry, looked up): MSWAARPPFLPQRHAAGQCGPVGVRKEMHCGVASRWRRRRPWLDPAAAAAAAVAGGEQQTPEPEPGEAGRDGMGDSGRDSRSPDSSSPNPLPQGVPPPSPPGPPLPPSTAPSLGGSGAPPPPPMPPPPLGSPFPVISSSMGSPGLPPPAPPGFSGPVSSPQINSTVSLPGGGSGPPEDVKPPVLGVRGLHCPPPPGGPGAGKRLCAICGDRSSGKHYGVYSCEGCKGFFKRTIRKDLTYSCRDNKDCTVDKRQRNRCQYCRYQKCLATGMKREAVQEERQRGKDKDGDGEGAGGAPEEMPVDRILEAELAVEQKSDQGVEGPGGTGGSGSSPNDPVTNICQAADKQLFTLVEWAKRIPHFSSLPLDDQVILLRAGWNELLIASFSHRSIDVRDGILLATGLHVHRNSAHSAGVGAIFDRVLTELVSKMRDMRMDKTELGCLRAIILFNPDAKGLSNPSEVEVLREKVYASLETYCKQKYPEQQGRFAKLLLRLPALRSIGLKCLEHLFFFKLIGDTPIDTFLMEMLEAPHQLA
Inconclusive results are not listed. The source made the active and inactive calls. Rule for the calls: active = hit-call score of the fitted dose curve at least 0.9, where 1 is the maximum; inconclusive = response in the unintended direction; inactive = score below 0.9.
Pick one: T (active), F (inactive)

Task item: How did this test come out for Nc1ccccc1C(=O)OCCc1ccccc1 ?
Reply: T

Task item: How did this test come out for O=S(=O)(O)OOS(=O)(=O)O ?
Reply: F

Task item: How did this test come out for N#CC(c1ccccc1)c1ccccc1 ?
Reply: T

Task item: How did this test come out for Nc1ccc(Cl)c(Cl)c1 ?
Reply: F

Task item: How did this test come out for C=Cc1cccc(CCl)c1 ?
Reply: F

Task item: How did this test come out for Nc1ccccc1C(=O)Oc1ccc2ccccc2c1 ?
Reply: F

Task item: How did this test come out for CN(C)C(=O)C(c1ccccc1)c1ccccc1 ?
Reply: F

Task item: How did this test come out for COc1cc(OC)nc(Oc2cccc(Oc3nc(OC)cc(OC)n3)c2C(=O)O)n1 ?
Reply: F

Task item: How did this test come out for CCc1cccc(C)c1N(C(=O)CCl)[C@@H](C)COC ?
Reply: F

Task item: How did this test come out for CCOP(=O)(OCC)Oc1ccc([N+](=O)[O-])cc1 ?
Reply: F

Task item: How did this test come out for CN(C)CCC#N ?
Reply: F

Task item: How did this test come out for O=S(=O)(O)O ?
Reply: F

Task item: How did this test come out for O=c1[nH]c(Cl)c(Cl)cc1Cl ?
Reply: F

Task item: How did this test come out for O=C1Nc2ccc(Cl)cc2C(c2ccccc2)=NC1O (centres undefined) ?
Reply: F

Task item: How did this test come out for CC1CCCC1.[C-]#[O+].[C-]#[O+].[C-]#[O+].[Mn] ?
Reply: F

Task item: How did this test come out for Nc1ccc([N+](=O)[O-])cc1N ?
Reply: F

Task item: How did this test come out for CCC(=O)c1ccc(Cl)cc1 ?
Reply: F

Task item: How did this test come out for O=C(CCN1CC1)OCC(CO)(COC(=O)CCN1CC1)COC(=O)CCN1CC1 ?
Reply: F

Task item: How did this test come out for [CH3][Sn]([CH3])([Cl])[Cl] ?
Reply: F

Task item: How did this test come out for CCCCOC(=O)CCC(=O)OCCCC ?
Reply: F

Task item: How did this test come out for Clc1ccc(-c2ccccc2)cc1 ?
Reply: F

Task item: How did this test come out for CC(C)COP(=O)(OCC(C)C)OCC(C)C ?
Reply: F

Task item: How did this test come out for C[C@]12CC[C@H](O)C[C@H]1CC[C@@H]1[C@@H]2C[C@@H](O)[C@]2(C)[C@@H](C3=CC(=O)OC3)CC[C@]12O ?
Reply: F

Task item: How did this test come out for Cl/C=C\CCl ?
Reply: F

Task item: How did this test come out for C=CC(=O)OCC(CC)CCCC (centres undefined) ?
Reply: F

Task item: How did this test come out for C=CCc1ccc(OC(=O)Cc2ccccc2)c(OC)c1 ?
Reply: F

Task item: How did this test come out for Cc1ccc(C)c2ccccc12 ?
Reply: T

Task item: How did this test come out for CC(C)c1ccc(O)cc1 ?
Reply: T

Task item: How did this test come out for O=C(CCl)c1ccccc1 ?
Reply: T

----------
target: Cellular tumor antigen p53 (Homo sapiens) (UniProt P04637); assay: TOX21_p53_BLA_p2_ratio: Tox21 HCT-116 p53 Agonism Beta-lactamase Assay, Ratio, Phase 2 (AID 2283592)
Sequence (P04637 whole entry, looked up): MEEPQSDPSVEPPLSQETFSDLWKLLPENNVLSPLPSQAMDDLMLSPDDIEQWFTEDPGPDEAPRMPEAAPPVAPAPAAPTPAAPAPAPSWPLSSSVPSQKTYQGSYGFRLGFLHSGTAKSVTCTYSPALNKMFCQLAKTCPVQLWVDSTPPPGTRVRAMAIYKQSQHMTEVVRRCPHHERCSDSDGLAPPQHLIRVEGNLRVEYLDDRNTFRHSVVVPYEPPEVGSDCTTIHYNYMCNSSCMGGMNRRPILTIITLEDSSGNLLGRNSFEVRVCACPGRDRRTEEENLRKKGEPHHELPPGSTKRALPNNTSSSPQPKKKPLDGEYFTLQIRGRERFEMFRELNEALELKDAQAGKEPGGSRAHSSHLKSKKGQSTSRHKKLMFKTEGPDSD
Results filed as inconclusive are left out. Active and inactive are the calls of the source. The calls were made as follows: active = hit-call score of the fitted dose curve at least 0.9, where 1 is the maximum; inconclusive = response in the unintended direction; inactive = score below 0.9.
Pick one: true (active), false (inactive)

Task item: How did this test come out for C[C@@H]1[C@@H]2Cc3ccc(O)cc3[C@@]1(C)CCN2CC1CC1 ?
Reply: false

Task item: How did this test come out for C=CCC1([C@@H](C)CCC)C(=O)NC(=O)NC1=O ?
Reply: false

Task item: How did this test come out for C=C(Cl)CCl ?
Reply: false

Task item: How did this test come out for CN(C)c1ccc(N(C)C)cc1 ?
Reply: false

Task item: How did this test come out for Clc1ccc(-c2ccc(Cl)c(Cl)c2Cl)c(Cl)c1Cl ?
Reply: false

Task item: How did this test come out for Nc1ccc(Cl)c(Cl)c1 ?
Reply: false

Task item: How did this test come out for C[C@]1(O)CC[C@H]2[C@@H]3CCC4=CC(=O)CC[C@]4(C)[C@@]3(F)[C@@H](O)C[C@@]21C ?
Reply: false

Task item: How did this test come out for O=[N+]([O-])C=Cc1ccccc1 ?
Reply: true

Task item: How did this test come out for c1ccc2c(c1)cc1ccc3cccc4ccc2c1c34 ?
Reply: true

Task item: How did this test come out for C[C@@H](Cc1ccccc1)N(C)C ?
Reply: false

Task item: How did this test come out for CNC(=O)Oc1ccccc1C1OCCO1 ?
Reply: false

Task item: How did this test come out for C=CCc1ccc(OC(=O)Cc2ccccc2)c(OC)c1 ?
Reply: false

Task item: How did this test come out for II ?
Reply: false

Task item: How did this test come out for CC(C)CC(C)N (stereo not given) ?
Reply: false

Task item: How did this test come out for Nc1ccncc1 ?
Reply: false

Task item: How did this test come out for NC(=O)CS(=O)C(c1ccccc1)c1ccccc1 (stereo not given) ?
Reply: false

Task item: How did this test come out for COc1ccc(C(=O)c2c(C)n(CCN3CCOCC3)c3ccccc23)cc1 ?
Reply: false

Task item: How did this test come out for O=[N+]([O-])c1ccccc1CCl ?
Reply: false

Task item: How did this test come out for S=C(SSC(=S)N1CCCCC1)N1CCCCC1 ?
Reply: false

Task item: How did this test come out for CNC(=O)OCC[N+](C)(C)C ?
Reply: false

Task item: How did this test come out for Cc1cccc(Cc2cnc[nH]2)c1C ?
Reply: false

Task item: How did this test come out for NC(=O)CI ?
Reply: false

Task item: How did this test come out for COc1ccc(C(=O)N2CCCC2=O)cc1 ?
Reply: false

Task item: How did this test come out for CCCCCCCCCCCOC(=O)c1ccccc1C(=O)OCCCCCCCCCCC ?
Reply: false

Task item: How did this test come out for O=[N+]([O-])CCO ?
Reply: false

Task item: How did this test come out for CCCC=NO ?
Reply: false

Task item: How did this test come out for ClCCOCOCCCl ?
Reply: false

Task item: How did this test come out for CCCCN(N=O)C(=N)N[N+](=O)[O-] ?
Reply: true

Task item: How did this test come out for O=c1ccc2cc(O[C@@H]3O[C@H](CO)[C@@H](O)[C@H](O)[C@H]3O)c(O)cc2o1 ?
Reply: true

Task item: How did this test come out for [Cl][Sn]([Cl])([Cl])[Cl] ?
Reply: false

Task item: How did this test come out for CN1C[C@@H](NS(=O)(=O)N(C)C)C[C@@H]2c3cccc4c3c(cn4C)C[C@H]21 ?
Reply: false

Task item: How did this test come out for Cc1nc2ccccc2c(=O)n1-c1ccccc1Cl ?
Reply: false

Task item: How did this test come out for N#Cc1cc(I)c(O)c(I)c1 ?
Reply: true

Task item: How did this test come out for CC(C)CCCCCCCOP(=O)(Oc1ccccc1)Oc1ccccc1 ?
Reply: false

Task item: How did this test come out for CC1CN1 (stereo not given) ?
Reply: false

Task item: How did this test come out for CC(Cc1ccccc1)NCCn1cnc2c1c(=O)n(C)c(=O)n2C (stereo not given) ?
Reply: false

Task item: How did this test come out for CSSC ?
Reply: false

Task item: How did this test come out for COC1=CC(=O)O[C@@H](/C=C/c2ccc3c(c2)OCO3)C1 ?
Reply: false

Task item: How did this test come out for ClCC(Cl)(Cl)Cl ?
Reply: false

Task item: How did this test come out for O=C(CCl)c1ccc(Oc2ccc(C(=O)CCl)cc2)cc1 ?
Reply: true

Task item: How did this test come out for O=[N+]([O-])c1cc([N+](=O)[O-])c2ccccc2c1 ?
Reply: false

Task item: How did this test come out for O=S(=O)(Cl)Cl ?
Reply: false

Task item: How did this test come out for O=P(O)(Oc1ccccc1)Oc1ccccc1 ?
Reply: false

Task item: How did this test come out for COC(C)(C)C ?
Reply: false

Task item: How did this test come out for Cc1cnc[nH]1 ?
Reply: false

Task item: How did this test come out for CC1(C)[C@H](C(=O)O[C@H](C#N)c2cccc(Oc3ccccc3)c2)[C@@H]1C=C(Br)Br ?
Reply: false

Task item: How did this test come out for CC(C)NC(C)C ?
Reply: false

Task item: How did this test come out for CC(C)(C)C(=O)CCl ?
Reply: false

Task item: How did this test come out for O=NN1CCNCC1 ?
Reply: false

Task item: How did this test come out for CC(Cl)C(=O)O (stereo not given) ?
Reply: false

Task item: How did this test come out for CCOP(=O)(OCC)SCCSCC (tested in a mixture with another compound) ?
Reply: false

Task item: How did this test come out for O=P(O)(O)C(Cl)(Cl)P(=O)(O)O ?
Reply: false

Task item: How did this test come out for CCCCCCCCCCCCN=C(N)N ?
Reply: false

Task item: How did this test come out for C[C@H]1CC[C@]2(NC1)O[C@H]1C[C@H]3[C@@H]4CC[C@H]5C[C@@H](O[C@@H]6O[C@H](CO)[C@H](O[C@@H]7O[C@H](CO)[C@@H](O)[C@H](O[C@@H]8OC[C@@H](O)[C@H](O)[C@H]8O)[C@H]7O[C@@H]7O[C@H](CO)[C@@H](O)[C@H](O)[C@H]7O)[C@H](O)[C@H]6O)CC[C@]5(C)[C@H]4CC[C@]3(C)[C@H]1[C@@H]2C ?
Reply: true

Task item: How did this test come out for CCCC[N+]1(C)CCCC1 ?
Reply: false
